Collected inhibition values appear next to each entry.
- experimentalSystem: Tyrosine-protein kinase ITK/TSK (Homo sapiens) (UniProt Q08881);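 note: values are mean percent inhibition of ITK from the GSK PKIS screen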
- Sequence (whole entry): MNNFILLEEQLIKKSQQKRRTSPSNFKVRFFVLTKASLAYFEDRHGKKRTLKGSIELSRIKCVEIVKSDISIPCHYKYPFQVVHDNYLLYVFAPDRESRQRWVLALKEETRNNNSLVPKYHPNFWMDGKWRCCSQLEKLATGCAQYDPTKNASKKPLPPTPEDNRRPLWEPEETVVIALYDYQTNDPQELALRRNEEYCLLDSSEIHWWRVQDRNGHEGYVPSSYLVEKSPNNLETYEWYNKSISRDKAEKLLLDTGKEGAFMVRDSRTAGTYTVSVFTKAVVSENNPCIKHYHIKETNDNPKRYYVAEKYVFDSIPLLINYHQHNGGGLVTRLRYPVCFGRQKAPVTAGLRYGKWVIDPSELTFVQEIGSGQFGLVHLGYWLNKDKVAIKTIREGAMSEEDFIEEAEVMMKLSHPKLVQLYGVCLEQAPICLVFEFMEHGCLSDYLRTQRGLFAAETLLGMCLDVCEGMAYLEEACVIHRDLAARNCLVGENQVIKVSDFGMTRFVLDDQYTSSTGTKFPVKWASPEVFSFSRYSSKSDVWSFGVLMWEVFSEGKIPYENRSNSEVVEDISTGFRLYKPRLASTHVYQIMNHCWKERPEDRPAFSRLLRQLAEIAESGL
- protocolConditions: at 1 µM
Response body: numeric value in %, unit text excluded.

Known results for compounds:
1. COc1cc(Nc2nccc(Nc3ccc4c(C)n[nH]c4c3)n2)cc(OC)c1OC :: 7.07
2. COc1cc2c(cc1Nc1nc(Nc3ccsc3C(N)=O)c3cc[nH]c3n1)N(C(=O)CN(C)C)CCC2(C)C :: 3.88
3. CCCN(CCS(C)(=O)=O)Cc1ccc(-c2ccc3ncnc(Nc4ccc(OCc5cccc(F)c5)c(Cl)c4)c3c2)o1 :: 1.15
4. CCn1cc(-c2ccnc3[nH]ccc23)c(-c2cccc(NC(=O)Nc3ccc(OCc4ccccc4)cc3)c2)n1 :: -0.24
5. COC(=O)Nc1nc2ccc(Oc3ccc(NC(=O)Nc4cccc(Cl)c4)cc3)cc2[nH]1 :: 0.42
6. CNC(=O)c1cc(-c2ccc(F)cc2)cc(-c2ccc(S(=O)(=O)N3CCCC3)cc2)c1N :: 0.87
7. c1ccc(COc2ccc(Nc3ncnc4ccc(-c5ccco5)cc34)cc2)cc1 :: 0.76
8. CC(=O)Nc1cccc(C#Cc2cncnc2Nc2ccc(OCc3cccc(F)c3)c(Cl)c2)c1 :: 2.79

Quote inhibition reported for CCOc1ccc2c(-c3ccnc(Nc4cccc(C(F)(F)F)c4)n3)cnn2n1 please. 4.47

====

This listing pairs molecules with measured inhibition.
- Tested on: Epidermal growth factor receptor (Homo sapiens), P00533 [L858R,T790M]
- Sequence (P00533 whole entry T790M/L858R, looked up): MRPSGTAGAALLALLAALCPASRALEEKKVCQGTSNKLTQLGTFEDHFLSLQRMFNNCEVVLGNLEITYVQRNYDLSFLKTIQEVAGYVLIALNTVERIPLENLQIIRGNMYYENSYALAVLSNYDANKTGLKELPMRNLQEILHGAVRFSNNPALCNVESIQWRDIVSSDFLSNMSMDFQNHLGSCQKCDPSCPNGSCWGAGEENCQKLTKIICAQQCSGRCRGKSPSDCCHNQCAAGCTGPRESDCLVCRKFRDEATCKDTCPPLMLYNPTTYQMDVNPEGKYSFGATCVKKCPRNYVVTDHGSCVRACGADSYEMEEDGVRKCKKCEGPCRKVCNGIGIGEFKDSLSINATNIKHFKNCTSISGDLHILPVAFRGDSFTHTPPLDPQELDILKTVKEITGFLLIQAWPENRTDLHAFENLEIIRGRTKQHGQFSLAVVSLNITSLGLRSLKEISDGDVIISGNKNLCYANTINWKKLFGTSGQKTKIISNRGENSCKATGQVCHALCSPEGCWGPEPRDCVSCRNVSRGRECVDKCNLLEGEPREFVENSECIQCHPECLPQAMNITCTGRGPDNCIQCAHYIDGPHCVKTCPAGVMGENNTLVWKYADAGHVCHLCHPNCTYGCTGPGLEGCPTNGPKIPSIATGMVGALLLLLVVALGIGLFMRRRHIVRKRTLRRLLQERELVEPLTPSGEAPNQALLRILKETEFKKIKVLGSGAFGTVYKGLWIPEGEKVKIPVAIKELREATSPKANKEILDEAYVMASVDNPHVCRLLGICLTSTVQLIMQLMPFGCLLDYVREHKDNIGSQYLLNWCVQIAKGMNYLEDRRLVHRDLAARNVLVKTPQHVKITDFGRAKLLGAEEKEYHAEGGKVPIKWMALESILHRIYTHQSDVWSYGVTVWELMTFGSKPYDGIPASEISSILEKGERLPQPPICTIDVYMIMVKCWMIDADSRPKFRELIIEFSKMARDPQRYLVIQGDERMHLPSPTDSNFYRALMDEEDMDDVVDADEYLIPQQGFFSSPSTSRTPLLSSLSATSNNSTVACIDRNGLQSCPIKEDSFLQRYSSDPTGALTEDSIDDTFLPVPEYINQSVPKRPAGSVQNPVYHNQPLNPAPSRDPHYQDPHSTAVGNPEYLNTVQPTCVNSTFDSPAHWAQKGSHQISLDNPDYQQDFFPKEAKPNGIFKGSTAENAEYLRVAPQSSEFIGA
- protocolConditions: at 1 µM
Please give a number only; it is taken to be in %.

A selection of reference data follows.
1. COC(=O)Nc1nc2ccc(Oc3ccc(NC(=O)Nc4cccc(Cl)c4)cc3)cc2[nH]1 :: 0.71
2. COc1cccc(-n2ncc3c(N/N=C/c4ccc(F)cc4)ncnc32)c1 :: 1.29
3. CN1CCC(n2cnc(-c3ccc(F)cc3)c2-c2ccnc(Nc3ccccc3)n2)CC1 :: 49.1

Under Epidermal growth factor receptor (Homo sapiens), P00533 [L858R,T790M]: report inhibition of COc1cc(Nc2nccc(Nc3ccc4c(C)n[nH]c4c3)n2)cc(OC)c1OC . 20.9

For Epidermal growth factor receptor (Homo sapiens), P00533 [L858R,T790M], give the measured inhibition of the entry COC(=O)c1sc(-n2cnc3cc(OC)c(OC)cc32)cc1OCc1ccccc1C(F)(F)F 1.53
